These measurements were taken from patent US20090318470A1.

Molecular target: serotonin 5HT6 receptor subtype (Homo sapiens)
Construct: host or cells: CHO-Dukx-A2 cells, clone 50-7
Sequence (P50406 whole entry): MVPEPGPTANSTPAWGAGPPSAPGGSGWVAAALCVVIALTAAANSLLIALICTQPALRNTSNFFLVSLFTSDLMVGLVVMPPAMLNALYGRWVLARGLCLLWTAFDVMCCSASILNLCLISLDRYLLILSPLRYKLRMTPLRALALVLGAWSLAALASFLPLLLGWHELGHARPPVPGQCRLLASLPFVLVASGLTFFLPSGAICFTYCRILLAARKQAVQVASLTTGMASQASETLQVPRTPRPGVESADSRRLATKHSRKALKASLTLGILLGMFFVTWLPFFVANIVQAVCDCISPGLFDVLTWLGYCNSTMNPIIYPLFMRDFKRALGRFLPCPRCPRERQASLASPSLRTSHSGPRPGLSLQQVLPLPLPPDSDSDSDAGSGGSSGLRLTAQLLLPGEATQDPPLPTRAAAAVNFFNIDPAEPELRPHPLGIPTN
Assay: 5HT6 Binding Affinity ([3H]-LSD SPA binding)
Details: CHO-Dukx-A2 cells expressing 5HT6, 3 nM [3H]-LSD, Cheng-Prusoff; read-out: 5HT6 Ki
Where a name gives a salt, the structure may show the parent alone.
Measurement Name: Ki
Report field: quantity (unit follows the number).

// solved cases for Ki follow
input: For the compound CC(=O)n1nc(S(=O)(=O)c2cccc3ccccc23)c2cc(N3CCNCC3)ccc21 [Example 4, hydrochloride] , what Ki is on record?
output: 1 nM

input: For the compound O=S(=O)(c1cccc2ccccc12)c1nn(Cc2cccc(Cl)c2)c2ccc(N3CCNCC3)cc12 [Example 3, dihydrochloride] , what Ki is on record?
output: 23.5 nM

input: For the compound CCCn1nc(S(=O)(=O)c2cccc3ccccc23)c2cc(N3CCNCC3)ccc21 [Example 7, dihydrochloride] , what Ki is on record?
output: 2.2 nM

input: For the compound CC(C)n1nc(S(=O)(=O)c2cccc3ccccc23)c2cc(N3CCNCC3)ccc21 [Example 8, dihydrochloride] , what Ki is on record?
output: 3 nM

input: For the compound CCn1nc(S(=O)(=O)c2cccc3ccccc23)c2cc(N3CCNCC3)ccc21 [Example 6, dihydrochloride] , what Ki is on record?
output: 1.9 nM

input: For the compound O=S(=O)(c1cccc2ccccc12)c1nn(Cc2ccccc2)c2ccc(N3CCNCC3)cc12 [Example 2, dihydrochloride] , what Ki is on record?
output: 7.5 nM

New cases:
input: For the compound CC(C)Cn1nc(S(=O)(=O)c2cccc3ccccc23)c2cc(N3CCNCC3)ccc21 [Example 1, dihydrochloride] , what Ki is on record?
output: 4.6 nM

input: For the compound Cn1nc(S(=O)(=O)c2cccc3ccccc23)c2cc(N3CCNCC3)ccc21 [Example 5, dihydrochloride] , what Ki is on record?
output: 1.6 nM
